Every entry's value here was drawn from paper PMC6009964.

Listing of recorded SI (Ca9–22) by entry.
# Test system: Ca9–22 human oral squamous cell carcinoma cell line (gingiva)
# TEST_NAME: Cytotoxicity assay (MTT), Ca9-22
# CONDITION_PARAMETERS: average CC50 of nonmalignant cells / CC50 towards Ca9–22
QUANTITY_MEASURED: SI (Ca9–22)

>>> readout_value("NS(=O)(=O)c1ccc(N2N=C(c3ccc(O)cc3)CC2c2cccs2)cc1 (stereo not shown)")
1.2
>>> readout_value("COc1ccc(C2CC(c3ccc(O)cc3)=NN2c2ccc(S(N)(=O)=O)cc2)cc1 (stereo not shown)")
2.0
>>> readout_value("NS(=O)(=O)c1ccc(N2N=C(c3ccc(O)cc3)CC2c2ccc(Br)cc2)cc1 (stereo not shown)")
1.4

---

# Tested on: HSC-2 human oral squamous cell carcinoma cell line (tongue)
# TEST_NAME: Cytotoxicity assay (MTT), HSC-2
# CONDITION_PARAMETERS: average CC50 of nonmalignant cells / CC50 towards HSC-2
Mark satisfied only when SI (HSC-2) stays strictly below 1. Values equal to the cut-off are not satisfied.

>>> label_class("NS(=O)(=O)c1ccc(N2N=C(c3ccc(O)cc3)CC2c2ccccc2)cc1 (stereo not shown) [Compound 1]")
"not satisfied"
>>> label_class("COc1ccc(C2CC(c3ccc(O)cc3)=NN2c2ccc(S(N)(=O)=O)cc2)cc1 (stereo not shown) [Compound 3]")
"not satisfied"
>>> label_class("NS(=O)(=O)c1ccc(N2N=C(c3ccc(O)cc3)CC2c2ccc([N+](=O)[O-])cc2)cc1 (stereo not shown) [Compound 8]")
"satisfied"
>>> label_class("NS(=O)(=O)c1ccc(N2N=C(c3ccc(O)cc3)CC2c2ccc(Br)cc2)cc1 (stereo not shown) [Compound 7]")
"satisfied"
>>> label_class("O=c1[nH]cc(F)c(=O)[nH]1 [Compound 5-FU, 5-Fluorouracil, reference compound]")
"not satisfied"
>>> label_class("NS(=O)(=O)c1ccc(N2N=C(c3ccc(O)cc3)CC2c2ccc(Cl)cc2Cl)cc1 (stereo not shown) [Compound 5]")
"satisfied"
>>> label_class("NS(=O)(=O)c1ccc(N2N=C(c3ccc(O)cc3)CC2c2cccs2)cc1 (stereo not shown) [Compound 9]")
"not satisfied"
>>> label_class("NS(=O)(=O)c1ccc(N2N=C(c3ccc(O)cc3)CC2c2ccc(Cl)cc2)cc1 (stereo not shown) [Compound 4]")
"not satisfied"

---

pKi: −log10 of the molar value.
Values of pKi reported for hCA XII (Homo sapiens, UniProt O43570) appear below.
QUANTITY_MEASURED: pKi

>>> readout_value("COc1ccc(C2CC(c3ccc(O)cc3)=NN2c2ccc(S(N)(=O)=O)cc2)cc1 (stereo not drawn)")
7.47
>>> readout_value("NS(=O)(=O)c1ccc(N2N=C(c3ccc(O)cc3)CC2c2ccc(Cl)cc2Cl)cc1 (stereo not drawn)")
8.04
>>> readout_value("NS(=O)(=O)c1ccc(N2N=C(c3ccc(O)cc3)CC2c2ccc(Cl)cc2)cc1 (stereo not drawn)")
7.41

---

Listing of recorded CC50 by entry.
# Tested on: Human oral squamous cell carcinoma cell lines (Ca9–22, HSC-2, HSC-3, HSC-4)
# TEST_NAME: Cytotoxicity assay (MTT), all four OSCC lines (mean, selectivity)
# CONDITION_PARAMETERS: Homo sapiens, read-out: CC50 Mean (B), human oral squamous cell carcinoma cell lines
QUANTITY_MEASURED: CC50

>>> readout_value("NS(=O)(=O)c1ccc(N2N=C(c3ccc(O)cc3)CC2c2ccc(Cl)cc2Cl)cc1 (stereo not shown) [Compound 5]")
"64.2 µM"
>>> readout_value("Cc1ccc(C2CC(c3ccc(O)cc3)=NN2c2ccc(S(N)(=O)=O)cc2)cc1 (stereo not shown) [Compound 2]")
"72.5 µM"
>>> readout_value("NS(=O)(=O)c1ccc(N2N=C(c3ccc(O)cc3)CC2c2ccc([N+](=O)[O-])cc2)cc1 (stereo not shown) [Compound 8]")
"60.6 µM"
>>> readout_value("O=c1[nH]cc(F)c(=O)[nH]1 [Compound 5-FU, 5-Fluorouracil, reference compound]")
"17.8 µM"
>>> readout_value("NS(=O)(=O)c1ccc(N2N=C(c3ccc(O)cc3)CC2c2ccc(F)cc2)cc1 (stereo not shown) [Compound 6]")
"71.7 µM"
>>> readout_value("NS(=O)(=O)c1ccc(N2N=C(c3ccc(O)cc3)CC2c2cccs2)cc1 (stereo not shown) [Compound 9]")
"86.8 µM"
>>> readout_value("NS(=O)(=O)c1ccc(N2N=C(c3ccc(O)cc3)CC2c2ccc(Cl)cc2)cc1 (stereo not shown) [Compound 4]")
"59.8 µM"
>>> readout_value("COc1ccc(C2CC(c3ccc(O)cc3)=NN2c2ccc(S(N)(=O)=O)cc2)cc1 (stereo not shown) [Compound 3]")
"77 µM"
>>> readout_value("NS(=O)(=O)c1ccc(N2N=C(c3ccc(O)cc3)CC2c2ccccc2)cc1 (stereo not shown) [Compound 1]")
"85.3 µM"
>>> readout_value("NS(=O)(=O)c1ccc(N2N=C(c3ccc(O)cc3)CC2c2ccc(Br)cc2)cc1 (stereo not shown) [Compound 7]")
"68.2 µM"

---

# TEST_NAME: Cytotoxicity assay (MTT), HPLF
# CONDITION_PARAMETERS: human, normal periodontal ligament fibroblasts (HPLF)
QUANTITY_MEASURED: CC50 at 48 h (µM)

>>> readout_value("NS(=O)(=O)c1ccc(N2N=C(c3ccc(O)cc3)CC2c2cccs2)cc1 (stereo not shown)")
26.7
>>> readout_value("NS(=O)(=O)c1ccc(N2N=C(c3ccc(O)cc3)CC2c2ccc(Cl)cc2)cc1 (stereo not shown)")
29.3
>>> readout_value("Cc1ccc(C2CC(c3ccc(O)cc3)=NN2c2ccc(S(N)(=O)=O)cc2)cc1 (stereo not shown)")
42.3
>>> readout_value("NS(=O)(=O)c1ccc(N2N=C(c3ccc(O)cc3)CC2c2ccc(F)cc2)cc1 (stereo not shown)")
33
>>> readout_value("NS(=O)(=O)c1ccc(N2N=C(c3ccc(O)cc3)CC2c2ccc([N+](=O)[O-])cc2)cc1 (stereo not shown)")
30
>>> readout_value("NS(=O)(=O)c1ccc(N2N=C(c3ccc(O)cc3)CC2c2ccc(Br)cc2)cc1 (stereo not shown)")
34.3
>>> readout_value("NS(=O)(=O)c1ccc(N2N=C(c3ccc(O)cc3)CC2c2ccc(Cl)cc2Cl)cc1 (stereo not shown)")
34.7
>>> readout_value("NS(=O)(=O)c1ccc(N2N=C(c3ccc(O)cc3)CC2c2ccccc2)cc1 (stereo not shown)")
59.7
>>> readout_value("COc1ccc(C2CC(c3ccc(O)cc3)=NN2c2ccc(S(N)(=O)=O)cc2)cc1 (stereo not shown)")
39.3

---

Values of Ki reported for UniProtKB Q16790 appear below.
QUANTITY_MEASURED: Ki (nM)

>>> readout_value("NS(=O)(=O)c1ccc(N2N=C(c3ccc(O)cc3)CC2c2ccc([N+](=O)[O-])cc2)cc1 (stereo not drawn)")
63.7
>>> readout_value("NS(=O)(=O)c1ccc(N2N=C(c3ccc(O)cc3)CC2c2ccc(Cl)cc2Cl)cc1 (stereo not drawn)")
85.7
>>> readout_value("COc1ccc(C2CC(c3ccc(O)cc3)=NN2c2ccc(S(N)(=O)=O)cc2)cc1 (stereo not drawn)")
93.1

---

# ASSAY_SYSTEM: hCA XII (Homo sapiens, UniProt O43570)
# Construct: made in house
# Sequence (O43570 25-354): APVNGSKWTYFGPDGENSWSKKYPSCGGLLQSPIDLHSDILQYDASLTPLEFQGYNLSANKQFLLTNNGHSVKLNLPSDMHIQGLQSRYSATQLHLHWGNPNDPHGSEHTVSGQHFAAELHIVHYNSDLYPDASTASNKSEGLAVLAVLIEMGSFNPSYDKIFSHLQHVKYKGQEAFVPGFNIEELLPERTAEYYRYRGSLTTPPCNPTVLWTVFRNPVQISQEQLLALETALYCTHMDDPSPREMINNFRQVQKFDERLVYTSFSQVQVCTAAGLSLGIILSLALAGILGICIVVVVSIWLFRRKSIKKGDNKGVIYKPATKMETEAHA
# TEST_NAME: Stopped-flow CO2 hydration carbonic anhydrase assay, hCA XII
# Assay type: biochemical
# CONDITION_PARAMETERS: times more selective towards hCA XII than hCA IX
The label depends only on hCA XII/hCA IX (selectivity ratio of Ki): yes if it is at least 9, no if it is smaller.

>>> label_class("NS(=O)(=O)c1ccc(N2N=C(c3ccc(O)cc3)CC2c2ccccc2)cc1 (centres unmarked) [Compound 1]")
"yes"
>>> label_class("NS(=O)(=O)c1ccc(N2N=C(c3ccc(O)cc3)CC2c2ccc(Cl)cc2)cc1 (centres unmarked) [Compound 4]")
"no"
>>> label_class("NS(=O)(=O)c1ccc(N2N=C(c3ccc(O)cc3)CC2c2ccc([N+](=O)[O-])cc2)cc1 (centres unmarked) [Compound 8]")
"no"
>>> label_class("NS(=O)(=O)c1ccc(N2N=C(c3ccc(O)cc3)CC2c2cccs2)cc1 (centres unmarked) [Compound 9]")
"no"
>>> label_class("NS(=O)(=O)c1ccc(N2N=C(c3ccc(O)cc3)CC2c2ccc(Br)cc2)cc1 (centres unmarked) [Compound 7]")
"no"
>>> label_class("NS(=O)(=O)c1ccc(N2N=C(c3ccc(O)cc3)CC2c2ccc(F)cc2)cc1 (centres unmarked) [Compound 6]")
"yes"
>>> label_class("NS(=O)(=O)c1ccc(N2N=C(c3ccc(O)cc3)CC2c2ccc(Cl)cc2Cl)cc1 (centres unmarked) [Compound 5]")
"yes"
>>> label_class("COc1ccc(C2CC(c3ccc(O)cc3)=NN2c2ccc(S(N)(=O)=O)cc2)cc1 (centres unmarked) [Compound 3]")
"no"
